# Test system: OVCAR-5 ovarian
# Assay Details: NCI tumour cell line growth inhibition, 48 h
Outcome Measure: TGI

### Prompt Specify TGI for COc1ccc(/C=C2\S/C(=N/Nc3nc(-c4ccccc4)cs3)NC2=O)cc1OC and stop.
### Response > 100 µM

### Prompt Specify TGI for COC(=O)c1cc2ccc(OC(C)=O)c(OC(C)=O)c2cn1 and stop.
### Response 34.2 µM

### Prompt Specify TGI for CN(/N=C/c1cccc2cccnc12)c1ccccc1 and stop.
### Response > 100 µM

### Prompt Specify TGI for CC(C)C(OC(=O)c1ccc(NCc2cc(O)ccc2O)cc1)C(C)C and stop.
### Response 6.16 µM

### Prompt Specify TGI for CC#CC(=O)SCCNC(=O)CC and stop.
### Response > 10 µM

More entries:
### Prompt Specify TGI for COc1ccc(-n2c(=O)n(C)c(=O)n2-c2ccc(OC)cc2)cc1 and stop.
### Response > 100 µM

### Prompt Specify TGI for O=C1c2cc3c(cc2CC12Cc1ccc4c(c1C2=O)CCCC4)CCCC3 (centres undefined) and stop.
### Response > 100 µM

### Prompt Specify TGI for COc1cc(C2c3cc4c(cc3OC(NNC(N)=O)C2C)OCO4)cc(OC)c1O (centres undefined) and stop.
### Response > 100 µM

### Prompt Specify TGI for COc1cc(/C=C2\Sc3scc(-c4cccc([N+](=O)[O-])c4)[n+]3C2=O)cc(OC)c1OC and stop.
### Response 55.6 µM

### Prompt Specify TGI for CSC1=N/C(=C\c2ccco2)C(=O)N1CN1CCOCC1 and stop.
### Response > 100 µM

### Prompt Specify TGI for COc1c(O)cc(O)c2c(=O)cc(-c3ccccc3)oc12 and stop.
### Response > 100 µM

### Prompt Specify TGI for N#Cc1ccccc1-c1nc2c3c(c(N)ccc3n1)C(=O)c1ccccc1-2 and stop.
### Response > 100 µM

### Prompt Specify TGI for COc1ccc(/C=N/N=C(\N)NO)c(OC)c1 and stop.
### Response 36.1 µM

### Prompt Specify TGI for COc1cc(C2C(Cl)C(=O)N2NC(=O)c2ccc(N)cc2)ccc1O (centres undefined) and stop.
### Response > 100 µM

### Prompt Specify TGI for CC(=O)Oc1c2oc3ccc(Cl)cc3c(=O)c2c(O)c2ccsc12 and stop.
### Response > 100 µM

### Prompt Specify TGI for O=C(Nc1cccc(NC(=O)Nc2cc(C(F)(F)F)ccc2Cl)c1)Nc1cc(C(F)(F)F)ccc1Cl and stop.
### Response > 100 µM

### Prompt Specify TGI for O=c1cc(N2CCN(c3cc(=O)n4ccccc4n3)CC2)oc2ccccc12 and stop.
### Response > 100 µM

### Prompt Specify TGI for COc1ccc(OC)c(NC(=O)CCC/C(CC(=O)c2ccc(O)c(OC)c2)=N\Nc2ccc([N+](=O)[O-])cc2)c1 and stop.
### Response > 100 µM

### Prompt Specify TGI for Cc1ccc(Nc2nc(C)c(C(/C=C/c3ccc(/C=C/C(=N/NC(=O)C[n+]4ccccc4)c4sc(Nc5ccc(C)cc5[N+](=O)[O-])nc4C)cc3)=N\NC(=O)C[n+]3ccccc3)s2)c([N+](=O)[O-])c1 and stop.
### Response > 100 µM

### Prompt Specify TGI for Cc1c(NC(=O)CSC(=S)N2CCN(Cc3ccccc3)CC2)c(=O)n(-c2ccccc2)n1C and stop.
### Response > 100 µM

### Prompt Specify TGI for Nc1[nH]nc2nc(-c3cccs3)cc(C(F)(F)F)c12 and stop.
### Response > 25 µM

### Prompt Specify TGI for CN(C(=O)c1ccco1)C(=S)N1CCN(c2ccccc2)CC1 and stop.
### Response > 100 µM

### Prompt Specify TGI for C=C1C(=O)OC2C1C(OC(=O)/C(C)=C/C)CC(O)(CCl)C1C(O)C3OC3(C)C21O (centres undefined) and stop.
### Response > 50 µM

### Prompt Specify TGI for C[C@H]1C[C@H]2[C@@H]3C(C)(C)O[C@]4(O)C(=O)[C@]5(O)[C@@H](C)CC[C@H]1[C@]25C(=O)[C@]34C and stop.
### Response > 100 µM
